// reported pIC50 for each item listed
# targetOrTestSystem: EP4 (Homo sapiens)
# Sequence (P35408 whole entry): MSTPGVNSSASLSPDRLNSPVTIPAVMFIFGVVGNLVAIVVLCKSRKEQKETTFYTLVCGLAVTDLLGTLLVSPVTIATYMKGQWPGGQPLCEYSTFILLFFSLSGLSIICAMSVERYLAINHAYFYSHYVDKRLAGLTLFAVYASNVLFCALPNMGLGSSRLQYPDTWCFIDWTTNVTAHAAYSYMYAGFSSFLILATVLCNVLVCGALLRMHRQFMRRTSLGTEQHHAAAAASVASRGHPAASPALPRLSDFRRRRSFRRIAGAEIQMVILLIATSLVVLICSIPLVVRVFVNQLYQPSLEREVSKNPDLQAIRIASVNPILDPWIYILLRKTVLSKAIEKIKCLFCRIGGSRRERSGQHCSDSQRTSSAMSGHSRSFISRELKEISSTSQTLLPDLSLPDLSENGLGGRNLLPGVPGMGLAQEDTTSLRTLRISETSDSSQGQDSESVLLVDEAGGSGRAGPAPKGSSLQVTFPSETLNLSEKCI
# assayProcedure: Functional calcium flux assay, EP4
# experimentalConditions: stably transfected HEK293 cells; PGE2 10 nM; read-out: EP4 Ca2+-flux assay IC50
pIC50: −log10 of the molar value.

Below are worked cases with known answers.
| compound | pIC50 |
| --- | --- |
| O=C(NC1CC2(C1)CC(C(=O)O)C2)c1ccc(F)c2ccn(Cc3ccc(-c4ccc(OC5COC5)cc4)cc3)c12 (racemic) | 9.00 |
| O=C(NC1CC2(C1)CC(C(=O)O)C2)c1ccc(Cl)c2cnn(Cc3ccc(-c4cccc(OC(F)(F)F)n4)cc3)c12 (stereo not drawn) | 8.74 |
| O=C(NC1CC2(C1)CC(C(=O)O)C2)c1ccc(Cl)c2cnn(Cc3ccc(C4=CCCC4)c(F)c3)c12 (stereo not drawn) | > 9.00 |
| CC(c1ccc(-c2ccccc2)cc1)n1ncc2cc(Cl)cc(C(=O)NC3CC4(C3)CC(C(=O)O)C4)c21 (racemic) [Example 173] | 8.14 |
| O=C(O)CC1CC2(C1)CC(NC(=O)c1cc(OC(F)F)cc3cnn(Cc4ccc(-c5ccccc5)cc4)c13)C2 (stereo not drawn) | 9.00 |
| COc1cc(-c2ccc(Cn3ncc4cc(Cl)cc(C(=O)NC5CC6(C5)CC(C(=O)O)C6)c43)c(F)c2)ccn1 (stereo not drawn) | > 9.00 |
| O=C(NC1CC2(C1)CC(C(=O)O)C2)c1cc(Cl)cc2cnn(Cc3ccc(-c4ccccc4)c(F)c3)c12 (stereo not drawn) | > 9.00 |
| COc1ccc(-c2ccc(Cn3ccc4c(F)ccc(C(=O)NC5CC6(C5)CC(C(=O)O)C6)c43)cc2)cc1 (racemic) [Example 12] | > 9.00 |

q: So what's the measured pIC50 for this one? O=C(NC1CC2(C1)CC(C(=O)O)C2)c1cc(OC(F)F)cc2cnn(Cc3ccc(-c4ccccc4)cc3)c12 (stereo not drawn)
a: > 9.00

q: Okay, and O=C(NC1CC2(C1)CC(C(=O)O)C2)c1ccc(Cl)c2ccn(Cc3ccc(-c4ccccc4)cc3)c12 (stereo not drawn) ?
a: > 9.00

q: Okay, and CC(c1ccc(N2C[C@H]3C[C@H]3C2)cc1)n1ncc2c(Cl)ccc(C(=O)NC3CC4(C3)CC(C(=O)O)C4)c21 (mixture of isomers) [Example 77] ?
a: > 9.00

q: Okay, and CNC(=O)c1cc(-c2ccc(Cn3ncc4c(Cl)ccc(C(=O)NC5CC6(C5)CC(F)(C(=O)O)C6)c43)cc2)ccn1 (racemic) ?
a: 8.05

q: Okay, and N#Cc1cccc(-c2ccc(Cn3ccc4c(F)ccc(C(=O)NC5CC6(C5)CC(C(=O)O)C6)c43)cc2)c1 (stereo not drawn) [Example 55] ?
a: > 9.00

q: Okay, and COc1cccc(-c2ccc(Cn3ccc4c(F)ccc(C(=O)NC5CC6(CC(CC(=O)O)C6)C5)c43)cc2)n1 (stereo not drawn) ?
a: > 9.00

q: Okay, and CCOc1cc(-c2ccc(Cn3ncc4cc(Cl)cc(C(=O)NC5CC6(C5)CC(C(=O)O)C6)c43)cc2)ccn1 (stereo not drawn) ?
a: > 9.00

q: Okay, and O=C(NC1CC2(C1)CC(C(=O)O)C2)c1ccc(F)c2ccn(Cc3ccc(-c4ccccc4)cc3F)c12 (stereo not drawn) ?
a: > 9.00

q: Okay, and CC(c1ccc(-c2ccccc2)cc1)n1ccc2c(F)ccc(C(=O)NC3CC4(C3)CC(C(=O)O)C4)c21 (racemic) [Example 116] ?
a: 8.55

q: Okay, and COc1ccc(-c2ccc(Cn3ccc4c(F)ccc(C(=O)NC5CC6(CC(CC(=O)O)C6)C5)c43)cc2)cn1 (stereo not drawn) ?
a: > 9.00
